# assaySystem: T1, ARHGAP21, Q5T5U3
# T1 sequence (Q5T5U3 45-169, limits assumed, looked up): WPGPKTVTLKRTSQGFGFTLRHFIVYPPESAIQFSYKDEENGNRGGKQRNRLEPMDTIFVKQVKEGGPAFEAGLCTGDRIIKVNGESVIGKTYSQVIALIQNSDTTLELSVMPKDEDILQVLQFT
# assayName: holdup assay
# Parameters: key: below the threshold = too weak to quantify, mostly under pKd 3.1 to 4
# statedConditions: plain residues with an end cap or a label only (N-terminal biotin on a linker: ado-ado)
outcomeMeasure: pKd

Please review the following examples before continuing.
LPHPHSTTRV [NLGN2, Q8NFZ4] ... 3.71
LKVPPEERLI [CRB2, Q5IJ48] ... 3.89
TACCHSETVV [TGFA, P01135] ... 4.08
SARSRLSSNL [HCN2, Q9UL51] ... 4.37
QSPANIYYKV [EFNB1, P52799] ... below the threshold

*Q* Tell me measured pKd for VYPNAKVELV [PDLIM4_iso2, P50479] please.
*A* 3.8

*Q* Tell me measured pKd for VKPQVSESKL [ACOT8, O14734] please.
*A* below the threshold

*Q* Tell me measured pKd for HSGYRLNDYV [CLDN14, O95500] please.
*A* 3.95

*Q* Tell me measured pKd for KSGKQTMLVV [TRIM29, Q14134;Q14134-2] please.
*A* 4.14

*Q* Tell me measured pKd for TPPAAKKSRI [BAZ1A, Q9NRL2] please.
*A* 3.58
